- Tested on: key CYP enzymes (not individually named)
- protocolDescription: CYP inhibition in human liver microsomes
- Format: in vitro ADME

| smiles | measuredOn | IC50 |
| --- | --- | --- |
| Cc1cc(Nc2ccc(S(F)(F)(F)(F)F)cc2)n2nc(C(C)(F)F)nc2n1 | key CYP enzymes (not individually named) | > 10 µg/mL |

* * *

- protocolDescription: Plasma protein binding, mouse
- Type: in vitro ADME

| smiles | fraction unbound |
| --- | --- |
| Cc1cc(Nc2ccc(S(F)(F)(F)(F)F)cc2)n2nc(C(C)(F)F)nc2n1 | 0.003 |

* * *

- measuredOn: rabbit DHODH (Oryctolagus cuniculus, UniProt G1SWF3)
- Sequence (G1SWF3 1-395): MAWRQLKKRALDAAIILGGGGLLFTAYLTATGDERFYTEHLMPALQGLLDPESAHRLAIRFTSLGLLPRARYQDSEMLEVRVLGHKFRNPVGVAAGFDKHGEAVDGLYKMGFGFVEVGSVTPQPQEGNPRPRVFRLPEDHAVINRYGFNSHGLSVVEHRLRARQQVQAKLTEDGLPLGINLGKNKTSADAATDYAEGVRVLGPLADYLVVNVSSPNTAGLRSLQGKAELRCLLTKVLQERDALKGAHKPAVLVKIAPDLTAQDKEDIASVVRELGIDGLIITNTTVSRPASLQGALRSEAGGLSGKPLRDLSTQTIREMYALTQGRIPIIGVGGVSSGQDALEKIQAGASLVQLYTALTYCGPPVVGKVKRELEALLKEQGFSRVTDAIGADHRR
- protocolDescription: DHODH inhibition, DCIP spectrophotometric assay
- Assay type: biochemical
quantity: IC50

| smiles | quantity | result |
| --- | --- | --- |
| Cc1cc(Nc2ccc(S(F)(F)(F)(F)F)cc2)n2nc(C(C)(F)F)nc2n1 | IC50 | > 98.7 µM |

* * *

- measuredOn: human ether-a-go-go related gene (hERG) K+ channel (Homo sapiens)
- Sequence (Q12809 whole entry): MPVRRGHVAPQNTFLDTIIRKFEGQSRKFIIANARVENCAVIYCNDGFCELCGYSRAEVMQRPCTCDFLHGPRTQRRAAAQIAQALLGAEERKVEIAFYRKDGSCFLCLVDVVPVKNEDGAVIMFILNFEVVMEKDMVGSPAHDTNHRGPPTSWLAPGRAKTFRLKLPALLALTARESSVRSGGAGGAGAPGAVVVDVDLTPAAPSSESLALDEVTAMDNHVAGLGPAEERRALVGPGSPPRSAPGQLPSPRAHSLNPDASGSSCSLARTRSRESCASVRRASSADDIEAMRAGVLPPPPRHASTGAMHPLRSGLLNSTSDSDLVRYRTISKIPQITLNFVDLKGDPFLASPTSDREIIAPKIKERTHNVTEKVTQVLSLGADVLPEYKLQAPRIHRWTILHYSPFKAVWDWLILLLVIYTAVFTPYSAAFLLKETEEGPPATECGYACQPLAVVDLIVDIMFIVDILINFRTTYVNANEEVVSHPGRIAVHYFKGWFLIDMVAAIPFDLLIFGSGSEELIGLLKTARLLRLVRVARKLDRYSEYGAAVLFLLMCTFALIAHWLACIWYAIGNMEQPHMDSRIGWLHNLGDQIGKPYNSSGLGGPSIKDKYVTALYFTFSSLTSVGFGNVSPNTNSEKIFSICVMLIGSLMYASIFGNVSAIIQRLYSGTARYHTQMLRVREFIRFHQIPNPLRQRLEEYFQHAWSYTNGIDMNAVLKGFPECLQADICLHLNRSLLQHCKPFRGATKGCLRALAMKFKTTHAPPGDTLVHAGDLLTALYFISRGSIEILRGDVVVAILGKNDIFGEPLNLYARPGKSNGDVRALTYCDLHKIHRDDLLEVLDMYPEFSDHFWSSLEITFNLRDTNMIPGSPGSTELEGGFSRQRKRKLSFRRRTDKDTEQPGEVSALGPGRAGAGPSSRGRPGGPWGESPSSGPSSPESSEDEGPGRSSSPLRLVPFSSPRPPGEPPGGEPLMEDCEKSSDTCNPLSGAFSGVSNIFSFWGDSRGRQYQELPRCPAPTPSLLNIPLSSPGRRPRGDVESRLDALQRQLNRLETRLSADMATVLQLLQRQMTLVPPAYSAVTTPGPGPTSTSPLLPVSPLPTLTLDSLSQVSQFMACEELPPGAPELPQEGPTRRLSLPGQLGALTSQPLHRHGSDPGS
- protocolDescription: hERG patch clamp assay
pIC50: −log10 of the molar value.

| compound | pIC50 |
| --- | --- |
| Cc1cc(Nc2ccc(S(F)(F)(F)(F)F)cc2)n2nc(C(C)(F)F)nc2n1 [DSM265] | 5.16 to 5.80 |

* * *

- protocolDescription: Intravenous pharmacokinetics in monkeys and dogs
- Assay type: in vivo
- cond: male (dogs), female (monkeys), macaque (monkeys), beagle (dogs), monkey, dog, plasma

| molecule | half-life |
| --- | --- |
| Cc1cc(Nc2ccc(S(F)(F)(F)(F)F)cc2)n2nc(C(C)(F)F)nc2n1 [DSM265] | 10 to 45 h |
